assay.method.text: TLR3 IRF3 reporter activation blockers – cell-based, poly I:C stimulus, luciferase, 10K MLSCN set, primary screen (AID 602277)
measurement.parameters: HEK293-TLR3 RL24 IRF3 luciferase reporter, at 10 µM
The source made the active and inactive calls.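 How the source made its calls: active means inhibition of the reporter signal at or above 50%; inactive means inhibition below 50%.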
Could you please pick one outcome from this set? active, inactive

Entry COc1cc(CC(=O)Oc2ccc3c(c2)OCO3)cc(OC)c1OC : call = ?
active

Next compound up: O=C(Nc1ccc(S(=O)(=O)N2CCCCCC2)cc1)c1ccco1
inactive

Next compound up: O=C(O)c1ccc(-n2nc(C(F)(F)F)c3c2-c2ccoc2CC3)cc1
inactive

One more compound: CC(=O)c1c(O)cc(C)n(Nc2nc(C)cc(C)n2)c1=O
inactive

Now consider CCC(C)(C)NC(=O)CN(C(=O)c1snc(C(N)=O)c1N)c1ccc2c(c1)OCO2 and answer again.
inactive

And then CCOc1ccccc1-n1nnnc1SCC(=O)Nc1cc2oc3ccccc3c2cc1OC , what is it?
inactive

Entry c1cnc(NCCNc2ncccn2)nc1 please
inactive

# iterate: COc1cc(C2C(C#N)=C(C)NC3=C2C(=O)CC(C)(C)C3)ccc1O (stereo unspecified)
inactive

# iterate: O=C(CSc1nc2ccccc2[nH]1)N1CCCCC1
inactive

// repeat for CC(OC(=O)c1ccco1)C(=O)NCc1cccs1 (stereo unspecified) and report
inactive

// repeat for COc1ccc(CC(=O)Nc2cc(Cl)ccc2O)cc1 and report
inactive

###

assay.method.text: reduction of polyQ htt aggregates in cells – imaging, exon1htt(103Q)mCFP cells, high-content imaging, primary screen (AID 483);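 further: compound exposure lasted 3 days before fixation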
measurement.parameters: exon1htt(103Q)mCFP cell line, aggregate imaging, at 2 µM; stronger effect = higher value
For each entry below, report its inhibition of aggregation value.
Answer in %, number only, no unit symbol.

Please give the measured inhibition of aggregation for this compound: COc1ccc2[nH]c(=O)c(CN(Cc3cccs3)Cc3nnnn3C(C)(C)C)cc2c1
1.1

Try the compound Cc1cc(=O)n(CC(C)C)c(O)c1C#N
9.1

Queued: CC(=O)Nc1ccc(NS(=O)(=O)c2ccc(Cl)c(C(=O)O)c2)cc1
11.4

How about CCOC(=O)c1cc2ccc(OC)c(OC)c2c(=O)s1 ?
-3.4

Same question, c1ccc(N=P(c2nc3ccccc3o2)(N2CCOCC2)N2CCOCC2)cc1 this time
23.4

Again, but for CCCNC(=O)c1cc(S(=O)(=O)N2CCc3ccccc32)ccc1F
14.3

Try CCOC(=O)c1cc2c(=O)n3cccc(C)c3nc2n(Cc2ccco2)c1=NC(=O)c1cccnc1 next.
1.7

What about CN(C)CCNc1oc(-c2ccccc2F)nc1C#N ?
-11.1

What do you have for CC(C)c1cc(C(=O)Nc2cccnc2)no1 ?
-12.9

Now this one: CC(=O)NCCn1ccc2ccccc21
17.6

Same for O=C(NCC1CCCO1)c1cc(-c2ccncc2)nc2ccc(S(=O)(=O)N3CCOCC3)cc12 (stereo unspecified)
-9.7

###

Provide the reported inhibition of aggregation of each item.
assay.method.text: reduction of polyQ htt aggregates in cells – imaging, exon1htt(103Q)mCFP cells, high-content imaging, primary screen (AID 483);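 further: compound exposure lasted 3 days before fixation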
measurement.parameters: exon1htt(103Q)mCFP cell line, aggregate imaging, at 2 µM; stronger effect = higher value
Active and inactive are the calls of the source.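 The calls were made as follows: active = visual image review flags a hit and inhibition of aggregation exceeds 20%; inconclusive = visual hit but inhibition at or below 20%; inactive = no hit on visual image review.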

Give its inhibition of aggregation value. Item: Cc1ccc(Nc2cc(C)nc3ncnn23)c(Cl)c1
-2.9% (inactive)

Also need COc1ccc(-c2nc(CS(=O)CC(=O)N3CCCC3)c(C)o2)cc1 (stereo unspecified) , thanks.
6.1% (inactive)

And then O=C1C2C3C=CC(C3)C2C(=O)N1Cc1ccccc1 (stereo unspecified) , what is it?
-2.3% (inactive)

Ok, now CC(Oc1ccccc1)C(=O)Nc1ccc(S(=O)(=O)NCC2CCCO2)cc1 (stereo unspecified)
17.7% (inactive)

Moving on to the next compound: O=C(NCCc1ccccc1)c1cc(-c2ccco2)on1
7.8% (inactive)

And the next one, Cc1nc2ccc(NC(=O)N3CCC(c4ccccc4)C3)cc2nc1C (stereo unspecified) ?
9.2% (inactive)

###

assay.method.text: TLR3 IRF3 reporter activation blockers – cell-based, poly I:C stimulus, luciferase, 10K MLSCN set, primary screen (AID 602277)
measurement.parameters: HEK293-TLR3 RL24 IRF3 luciferase reporter, at 10 µM, stronger effect = higher value
assay.metric: inhibition (%)
# unit: % | format: bare number

I have this compound here, C=C(c1cccc2ccccc12)P(=O)(O)O , and I need its recorded inhibition.
22.1

Moving on to CCC(=O)N(Cc1ccco1)c1nc(-c2cc(OC)ccc2OC)cs1
7.6

Field entry: Cc1cc(NC(=O)Cn2cnc3c(cnn3C(C)(C)C)c2=O)no1
-0.822

// query: Cc1ccc2nc(NC(=O)Cn3cc4c(n3)CCCCC4)sc2c1
-11.8

And what about the compound Cc1cc(C)n2cc(CSCc3ccco3)nc2n1 ?
8.26

Do the same for O=C(O)COc1cccc(NC(=O)C2CCCO2)c1 (stereo unspecified) please
-4.06

Also, CC(=O)N1CCC2(CC1)CC(=O)c1cc(OCC(=O)NCc3ccco3)ccc1O2 please.
2.06

And what about the compound O=C(CCn1c(=O)c2ccccc2n(CC(=O)NCCC2=CCCCC2)c1=O)NCc1ccco1 ?
10.3

Param item: COc1cccc(NC(=O)CSc2nnc(Cc3cccn3C)n2-c2ccc(F)cc2)c1
15.6

Also CCOc1ccccc1N(CC(=O)N1CCCCCC1)S(C)(=O)=O , if possible.
19.4

Lookup O=C(c1sc2ccccc2c1Cl)N(Cc1cccs1)C1CCS(=O)(=O)C1 (stereo unspecified)
32.5

###

What nuclei count was measured for each of the following?
assay.method.text: reduction of polyQ htt aggregates in cells – imaging, exon1htt(103Q)mCFP cells, high-content imaging, primary screen (AID 483);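 further: compound exposure lasted 3 days before fixation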;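 on nuclei count: percent of the per-plate median nuclei count of sample wells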
measurement.parameters: exon1htt(103Q)mCFP cell line, aggregate imaging, at 2 µM; measured here: cell count, toxicity
Dear colleague, please return just the value in %, with no unit written.

What value of measured nuclei count is listed for Cc1cc(C)c2c(n1)nn1c(NCCCN3CCOCC3)cc(C)nc21 ?
119

Thanks! And COc1cccc(C(=O)Nc2ccc(NC(C)=O)cn2)c1 ?
96.3

Another compound: COc1ccc(-n2ncc3c(NCc4cccs4)ncnc32)cc1
98.4

Follow-up entry: N#Cc1nc(-c2ccc(Cl)cc2)oc1NCCc1ccccn1
107

Input O=C(O)c1cccc(COCC(F)(F)C(F)F)c1
101

Next record, please: CC(C)(C)NC(=O)COC(=O)c1snc(C(=O)NC2CCCCC2)c1N
99.5

Please answer likewise for Cc1cc(C)cc(N2C(=O)C3C4C=CC(C4)C3C2=O)c1 (stereo unspecified)
98.2

Could you do the same for c1ccc(CCc2nc(-c3cccnc3)no2)cc1 , please?
93

Now give it for Cn1c(=O)[nH]c(=O)c2c1nc(N1CCc3ccccc3C1)n2CCSc1nc2ccccc2s1 too.
105

Request: COc1ccccc1N1CCN(S(=O)(=O)CC23CCC(CC2=O)C3(C)C)CC1 (stereo unspecified)
103

Another compound to look at: Cc1cc(C(=O)COc2cccc3cccnc23)c(C)n1C
107

###

assay.method.text: reduction of polyQ htt aggregates in cells – imaging, exon1htt(103Q)mCFP cells, high-content imaging, primary screen (AID 483);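 further: compound exposure lasted 3 days before fixation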;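 on nuclei count: percent of the per-plate median nuclei count of sample wells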
measurement.parameters: exon1htt(103Q)mCFP cell line, aggregate imaging, at 2 µM; measured here: cell count, toxicity
assay.metric: nuclei count (%)
Field: numeric (%). Do not append units.

Dear colleague, I am looking for the recorded nuclei count of the following compound: CC(C)(C)C1CCc2c(sc3c2C(=O)NC(c2ccco2)N3)C1 (stereo unspecified)
125

Similarly, CCOC(=O)CNc1ccc2c(c1)OCO2 ?
99.8

Here is the next compound: COc1nc(Oc2ccc(=O)n(C)n2)nc(N(C)C)n1
116

// same read-out, input: Cc1cc(C)n(-c2nc3ccccc3c(=O)n2OCCOc2ccccc2)n1
107

Another compound to look at: Cc1ccc(NC(=O)COS(=O)c2ccc(C)cc2)cc1 (stereo unspecified)
94.3

How about this compound: COc1cc(C)nc(OCCNC(=O)COc2ccc(Cl)cc2C)n1
109

###

assay.method.text: endothelial E-selectin expression blockers – imaging, HUVEC, immunofluorescence, MLSMR starter and 10KST1 sets, primary screen (AID 487);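 further: signal is fraction of cell area covered by stained E-selectin grains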
measurement.parameters: HUVEC TNFalpha-induced E-selectin immunofluorescence imaging, at 2 µM; stronger effect = higher value
assay.metric: inhibition (%)
Reply numerically in %, unit not repeated.

Data request, read-out inhibition, for CCOC(=O)N1CCN(S(=O)(=O)c2cc(C)c(C)cc2C)CC1
-69.5

How about CC(OC(=O)CNC(=O)C12CC3CC(CC(C3)C1)C2)C(=O)Nc1ccc(N2CCOCC2)cc1 (stereo not drawn) ?
-47.1

Could you do the same for Cc1ccc(OCc2nnc(SCC(=O)Nc3ccc4c(c3)OCO4)n2C)cc1 , please?
-59.2

Note, next up: O=C1CC(c2ccsc2)c2cc3c(cc2N1)OCCO3 (stereo not drawn)
-78.5

# iterate: Cc1nc2ccccc2c(=O)n1/N=C/c1ccncc1
-2.9

Also CC1CN(C2CCCCC2)c2nc3c(c(=O)[nH]c(=O)n3C)n2C1 (stereo not drawn) , if possible.
4.4

Item: CN1CCN(c2nc(-c3ccncc3)nc3ccccc23)CC1
-133

For CC(=O)Nc1ccc(NS(=O)(=O)c2ccc(Cl)c(C(=O)O)c2)cc1 then?
-37.3

What would you report for CCc1cc2c(NCCC(=O)O)nc(C)nc2s1 ?
-7.8

Next record, please: CCOC(=O)c1c(C)c(C(=O)NCC2CCCO2)c(C)n1C (stereo not drawn)
-8

Then COc1ccc(-n2ncc3c(NCc4cccs4)ncnc32)cc1 ?
-94.5

Query Cc1ccc(CNC(=O)C2CCN(S(=O)(=O)c3cccs3)CC2)o1 next
-23.9

Repeat for the following compound: COC(=O)c1ccccc1NC(=O)C12CCC(C)(C(=O)O1)C2(C)C (stereo not drawn)
29.1

Item: COCc1cc(C)nc(SCC(=O)Nc2cccc(C)c2C)c1C#N
-62.6

What do you have for Cc1cccc(C(=O)N(C)c2nnc(-c3ccncc3)s2)c1 ?
34.2

Follow-up item: O=C(NCCC1=CCCCC1)C1CCN(S(=O)(=O)c2cccc3nsnc23)CC1
-41.8

Record: CCOC(=O)C1C(=O)NC(SCC(=O)Nc2nccs2)=C(C#N)C1c1ccccc1OCC (stereo not drawn)
20.7

Item: Cc1ccc(N(Cc2ccco2)C(=O)c2cccc(S(=O)(=O)N(C)C)c2)cc1
66

And what about the compound CCOc1ccc(NC2c3ccccc3C(=O)N2Cc2ccco2)cc1 (stereo not drawn) ?
-23.8

What do you get for Cc1nc2c3cnn(-c4ccccc4)c3ncn2n1 ?
-62.2

Repeat for the following compound: COc1ccc(OC)c(S(=O)(=O)Nc2ccc(O)c3ccccc23)c1
-13.9

Field entry: CC(C)(C)NC(=O)CN(Cc1cccs1)C(=O)c1csnn1
20.6

Next compound: CC(C)(C)c1cc(NS(=O)(=O)c2ccc3c(c2)OCCO3)on1
-81.6

FYI, the data here is from PubChem BioAssay.
